# experimentDescription: self-splicing fitness, log relative to wild type (ln ratio); higher = more splicing; Tetrahymena group I intron in knt gene, E. coli kanamycin selection, DiMSum; sequences stand for … in CUCUCU…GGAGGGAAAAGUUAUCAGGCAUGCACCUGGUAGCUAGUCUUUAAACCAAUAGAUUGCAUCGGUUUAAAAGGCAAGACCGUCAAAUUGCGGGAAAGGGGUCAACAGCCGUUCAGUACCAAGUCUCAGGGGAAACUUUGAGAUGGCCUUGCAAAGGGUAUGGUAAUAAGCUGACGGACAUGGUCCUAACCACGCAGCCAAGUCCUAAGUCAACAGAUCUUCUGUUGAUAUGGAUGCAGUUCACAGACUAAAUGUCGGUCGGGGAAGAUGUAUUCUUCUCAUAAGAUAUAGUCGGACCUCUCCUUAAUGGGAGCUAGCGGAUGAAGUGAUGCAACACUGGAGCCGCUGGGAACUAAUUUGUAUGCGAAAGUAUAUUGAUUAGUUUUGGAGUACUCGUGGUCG;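 also: selection with 25 µg/mL kanamycin versus none on LB agar overnight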
# recordedConditions: 30 °C
readoutLabel: self-splicing fitness (ln)

A selection of reference data follows.
UACAAGCAAUAUUACGCAAA: -2.24
GCUCAGCAAUAUUACGGUAC: -0.486
CGCCAGCAAUAUUACGACGA: -2.77
AAGAAGCAAUAUUACGCUAU: -3.04
GAGCAGCAAUAUUACGCGCU: -3.19
GGUUAGCAAUAUUACGGUGU: -2.18

We next turn to a different sequence, shown below.
Returns the measured self-splicing fitness (ln) for the input sequence. Input: `CUUGAGCAAUAUUACGUGCG` -2.22
